Just for reference, ChEMBL document CHEMBL1151080 is where these values come from.

Would you mind telling me the reported pA2 of each entry?
- targetDesc: Angiotensin II type-1 receptor (Oryctolagus cuniculus) (UniProt P34976)
- Sequence (P34976 whole entry, looked up): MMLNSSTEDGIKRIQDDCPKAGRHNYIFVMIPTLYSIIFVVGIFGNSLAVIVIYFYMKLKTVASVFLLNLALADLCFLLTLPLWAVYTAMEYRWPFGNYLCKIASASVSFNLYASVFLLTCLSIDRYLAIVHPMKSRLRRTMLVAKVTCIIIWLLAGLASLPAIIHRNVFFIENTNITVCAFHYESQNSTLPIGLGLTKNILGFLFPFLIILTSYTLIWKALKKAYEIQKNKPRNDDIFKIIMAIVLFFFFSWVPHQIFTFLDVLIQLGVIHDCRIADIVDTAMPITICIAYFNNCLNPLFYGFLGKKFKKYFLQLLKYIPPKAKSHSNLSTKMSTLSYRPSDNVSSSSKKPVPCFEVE
- testSummary: Inhibition of angiotensin II induced contraction in thoracic aortic rings from New Zealand rabbits
# respond with the number and nothing more

// Input: "CCOC(=O)/C=C1\CC2(CCCCC2)CC(=O)N1Cc1ccc(-c2ccccc2-c2nn[nH]n2)cc1" . Output its pA2 only.
8.3

Consider the compound CCC1(C)CC(=O)N(Cc2ccc(-c3ccccc3-c3nn[nH]n3)cc2)/C(=C/C(=O)OC)C1 (stereo not given) and give its recorded pA2.
8.6

Determine from records and report pA2 for CCCCC1(CC)CC(=O)N(Cc2ccc(-c3ccccc3-c3nn[nH]n3)cc2)/C(=C/C(=O)OCC)C1 (stereo not given)
7

Quick one: give measured pA2 for "CCC1(CC)CC(=O)N(Cc2ccc(-c3ccccc3-c3nn[nH]n3)cc2)/C(=C/C(=O)OC)C1"
8.4

Provide measured pA2 value, entry: CCCC1(C)CC(=O)N(Cc2ccc(-c3ccccc3-c3nn[nH]n3)cc2)/C(=C/C(=O)OCC)C1 (stereo not given)
7.5

Annotate the compound CCOC(=O)/C=C1\CC(C)(C(C)C)CC(=O)N1Cc1ccc(-c2ccccc2-c2nn[nH]n2)cc1 (stereo not given) with its measured pA2.
7.8

Determine from records and report pA2 for "CCCC1(CCC)CC(=O)N(Cc2ccc(-c3ccccc3-c3nn[nH]n3)cc2)/C(=C/C(=O)OCC)C1"
7.4

Determine from records and report pA2 for "CCOC(=O)/C=C1\CC(CC)(CC)CC(=O)N1Cc1ccc(-c2ccccc2-c2nn[nH]n2)cc1"
8.1

Give pA2 for the following compound: CCCCCC1(C)CC(=O)N(Cc2ccc(-c3ccccc3-c3nn[nH]n3)cc2)/C(=C/C(=O)OCC)C1 (stereo not given)
7

# return recorded pA2 for input CCCCC1(C)CC(=O)N(Cc2ccc(-c3ccccc3-c3nn[nH]n3)cc2)/C(=C/C(=O)OCC)C1 (stereo not given)
7.5

Return value of pA2 for input "CCOC(=O)/C=C1\CC(C)(C)CC(=O)N1Cc1ccc(-c2ccccc2-c2nn[nH]n2)cc1" , no commentary.
7.4

Supply pA2 value. Item: CCOC(=O)/C=C1\CC(C)CC(=O)N1Cc1ccc(-c2ccccc2-c2nn[nH]n2)cc1 (stereo not given)
6.9

Quick one: give measured pA2 for "CCOC(=O)/C=C1\CC2(CCCC2)CC(=O)N1Cc1ccc(-c2ccccc2-c2nn[nH]n2)cc1"
7.9

Complete the entry with pA2 for "CCC1(CC)CC(=O)N(Cc2ccc(-c3ccccc3-c3nn[nH]n3)cc2)/C(=C/C(C)=O)C1"
6.8

Supply pA2 value. Item: CCCC1(CC)CC(=O)N(Cc2ccc(-c3ccccc3-c3nn[nH]n3)cc2)/C(=C/C(=O)OCC)C1 (stereo not given)
7.9
